Values were extracted from ChEMBL document CHEMBL1157903.

measured target: Peroxisome proliferator-activated receptor alpha (Homo sapiens, UniProt Q07869)
Sequence (Q07869 whole entry, the tested form may be a part): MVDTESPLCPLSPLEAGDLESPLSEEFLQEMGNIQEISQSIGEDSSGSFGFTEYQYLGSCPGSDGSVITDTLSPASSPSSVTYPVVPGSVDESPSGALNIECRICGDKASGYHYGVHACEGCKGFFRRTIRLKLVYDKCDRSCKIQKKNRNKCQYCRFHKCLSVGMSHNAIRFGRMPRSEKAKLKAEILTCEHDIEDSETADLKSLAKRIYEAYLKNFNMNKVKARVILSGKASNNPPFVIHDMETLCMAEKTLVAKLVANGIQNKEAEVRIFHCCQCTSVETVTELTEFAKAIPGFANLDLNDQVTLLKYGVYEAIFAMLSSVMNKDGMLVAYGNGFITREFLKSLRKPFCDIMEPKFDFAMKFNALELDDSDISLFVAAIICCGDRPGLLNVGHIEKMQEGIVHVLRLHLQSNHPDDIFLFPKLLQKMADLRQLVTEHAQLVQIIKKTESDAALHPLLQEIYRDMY
procedure text: Agonist activity against human Gal4-fussed PPARalpha in HEK293 cells by luciferase reporter gene assay
Sorting guide: entries reporting EC50 beneath 70 nM go in the Fulfilled pile, the rest go in the Not fulfilled pile.

>>> assigned_label("COC(=O)N(CC(=O)O)Cc1cccc(OCc2csc(-c3ccccc3Cl)n2)c1")
"Not fulfilled"
>>> assigned_label("COC(=O)N(CC(=O)O)Cc1cccc(OCc2coc(-c3ccccc3)n2)c1")
"Not fulfilled"
>>> assigned_label("COC(=O)N(CC(=O)O)Cc1cccc(OCc2coc(-c3ccc(F)c(Cl)c3)n2)c1")
"Not fulfilled"
>>> assigned_label("COc1cccc(OC(=O)N(CC(=O)O)[C@@H](C)c2cccc(OCc3coc(-c4ccc(Cl)cc4)n3)c2)c1")
"Fulfilled"

Criterion: EC50 strictly below 70 nM. Is it met by COc1cc(OC(=O)N(CC(=O)O)[C@@H](C)c2cccc(OCc3coc(-c4ccc(Cl)cc4)n3)c2)ccc1F ?
Fulfilled

Criterion: EC50 strictly below 70 nM. Is it met by COC(=O)N(CC(=O)O)Cc1cccc(OCc2coc(-c3ccc(C)cc3)n2)c1 ?
Fulfilled

Criterion: EC50 strictly below 70 nM. Is it met by COC(=O)N(CC(=O)O)Cc1cccc(OCc2csc(-c3ccc(C(F)(F)F)cc3)n2)c1 ?
Fulfilled

====

measured target: Peroxisome proliferator-activated receptor alpha (Homo sapiens, UniProt Q07869)
procedure text: Agonist activity against human Gal4-fussed PPARalpha in HEK293 cells by luciferase reporter gene assay
endpoint: EC50 (nM)
Express your answer in nM, writing the number without its unit.

These recorded examples may help you get a feel for the data.
>>> meas_value("COC(=O)N(CC(=O)O)Cc1cccc(OCc2csc(-c3ccc(C)cc3)n2)c1")
41.8
>>> meas_value("COC(=O)N(CC(=O)O)Cc1cccc(OCc2coc(-c3cccc(C)c3)n2)c1")
451

Okay, next one:
Noted for Cc1ccc(F)c(OC(=O)N(CC(=O)O)[C@@H](C)c2cccc(OCc3coc(-c4ccc(Cl)cc4)n3)c2)c1 : its EC50 reads 471

====

MRT for assorted compounds
procedure text: Mean retention time in Sprague-Dawley rat at 5 mg/kg, iv and 10 mg/kg, po
Assay type: ADME, organism-based
applied conditions: in vivo
Express your answer in h, writing the number without its unit.

These recorded examples may help you get a feel for the data.
>>> meas_value("COC(=O)N(CC(=O)O)Cc1cccc(OCc2coc(-c3ccc(Cl)cc3)n2)c1")
10.7
>>> meas_value("COC(=O)N(CC(=O)O)Cc1cccc(OCc2nc(-c3ccc(Cl)cc3)oc2C)c1")
2.8

Okay, next one:
Noted for COC(=O)N(CC(=O)O)Cc1cccc(OCc2csc(-c3ccc(C(F)(F)F)cc3)n2)c1 : its MRT reads 6

====

pEC50 for assorted molecules
measured target: Peroxisome proliferator-activated receptor gamma (Homo sapiens)
Sequence (P37231 whole entry, the tested form may be a part): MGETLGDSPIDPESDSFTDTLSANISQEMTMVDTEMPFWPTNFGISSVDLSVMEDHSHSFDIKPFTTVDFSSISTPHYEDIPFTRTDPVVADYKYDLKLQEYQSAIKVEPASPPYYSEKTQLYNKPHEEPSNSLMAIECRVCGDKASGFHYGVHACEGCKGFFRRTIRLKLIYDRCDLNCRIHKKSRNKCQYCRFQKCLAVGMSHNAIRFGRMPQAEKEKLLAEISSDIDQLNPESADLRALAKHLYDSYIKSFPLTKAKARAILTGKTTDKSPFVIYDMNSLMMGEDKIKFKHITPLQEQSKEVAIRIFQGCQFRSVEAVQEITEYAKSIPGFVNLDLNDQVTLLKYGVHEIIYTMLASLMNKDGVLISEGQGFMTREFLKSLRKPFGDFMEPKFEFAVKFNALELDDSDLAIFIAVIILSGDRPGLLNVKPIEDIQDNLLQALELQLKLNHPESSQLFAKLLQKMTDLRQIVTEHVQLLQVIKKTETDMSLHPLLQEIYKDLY
procedure text: Agonist activity against human Gal4-fussed PPARgamma in HEK293 cells by luciferase reporter gene assay
pEC50 here: minus log base 10 of the concentration, concentration in moles per litre.

>>> meas_value("COC(=O)N(CC(=O)O)Cc1cccc(OCc2coc(-c3ccc(F)c(Cl)c3)n2)c1")
5.19
>>> meas_value("C[C@@H](c1cccc(OCc2coc(-c3ccc(Cl)cc3)n2)c1)N(CC(=O)O)C(=O)Oc1ccccc1")
5.77
>>> meas_value("COC(=O)N(CC(=O)O)Cc1cccc(OCc2csc(-c3ccc(C(F)(F)F)cc3)n2)c1")
5.46
>>> meas_value("Cc1cccc(OC(=O)N(CC(=O)O)[C@@H](C)c2cccc(OCc3coc(-c4ccc(Cl)cc4)n3)c2)c1")
6.24
>>> meas_value("COC(=O)N(CC(=O)O)Cc1cccc(OCc2coc(-c3ccc(C)cc3)n2)c1")
4.81

Noted for COC(=O)N(CC(=O)O)[C@@H](C)c1cccc(OCc2coc(-c3ccc(C)cc3)n2)c1 : its pEC50 reads 4.68
